Source listed as patent US20260234242A1.

Biological target: T1, his-tagged human CDH6 extracellular region protein (hCDH6 ECD-his) (human, UniProt P55285 19-615)
T1 construct: also called Human CDH6-his; hCDH6-his; not shown: his tag
T1 sequence: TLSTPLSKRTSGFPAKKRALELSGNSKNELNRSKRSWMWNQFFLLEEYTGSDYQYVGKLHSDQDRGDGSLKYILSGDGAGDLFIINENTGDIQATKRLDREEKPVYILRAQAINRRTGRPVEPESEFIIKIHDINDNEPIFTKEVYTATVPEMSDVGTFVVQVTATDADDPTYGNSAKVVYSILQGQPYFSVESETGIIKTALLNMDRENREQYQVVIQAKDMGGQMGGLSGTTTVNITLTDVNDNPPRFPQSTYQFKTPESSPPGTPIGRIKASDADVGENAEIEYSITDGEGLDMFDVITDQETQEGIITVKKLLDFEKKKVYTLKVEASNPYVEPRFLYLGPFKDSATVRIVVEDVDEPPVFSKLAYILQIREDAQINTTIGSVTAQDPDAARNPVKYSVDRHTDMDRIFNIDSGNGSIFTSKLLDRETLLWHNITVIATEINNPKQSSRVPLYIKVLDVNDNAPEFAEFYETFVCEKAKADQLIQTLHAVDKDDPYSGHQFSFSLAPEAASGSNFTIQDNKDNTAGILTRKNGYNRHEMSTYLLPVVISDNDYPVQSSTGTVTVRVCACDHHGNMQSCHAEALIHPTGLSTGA
Test: SPR Biacore, antibody captured on Protein A
measurement_name: Kd (nM)

hCDH6-1-H1L1 (antibody, V domains shown, Humanized) VH: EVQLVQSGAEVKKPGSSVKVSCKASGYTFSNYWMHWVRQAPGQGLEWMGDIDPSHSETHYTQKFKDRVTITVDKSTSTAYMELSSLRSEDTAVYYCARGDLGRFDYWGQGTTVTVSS VL: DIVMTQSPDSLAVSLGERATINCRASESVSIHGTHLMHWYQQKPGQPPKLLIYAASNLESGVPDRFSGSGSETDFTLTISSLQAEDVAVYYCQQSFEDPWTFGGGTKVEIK	21.7
